molecular target: IGFR kinase (Homo sapiens, UniProt P08069); construct: purchased Millipore; assay: Enzyme assay (c), IGFR kinase, Caliper LabChip; type: biochemical; conditions: 30 nM IGFR kinase, 6 uM ATP, 3 uM peptide mix; read-out: IGFR IC50
Sequence (P08069 31-1367): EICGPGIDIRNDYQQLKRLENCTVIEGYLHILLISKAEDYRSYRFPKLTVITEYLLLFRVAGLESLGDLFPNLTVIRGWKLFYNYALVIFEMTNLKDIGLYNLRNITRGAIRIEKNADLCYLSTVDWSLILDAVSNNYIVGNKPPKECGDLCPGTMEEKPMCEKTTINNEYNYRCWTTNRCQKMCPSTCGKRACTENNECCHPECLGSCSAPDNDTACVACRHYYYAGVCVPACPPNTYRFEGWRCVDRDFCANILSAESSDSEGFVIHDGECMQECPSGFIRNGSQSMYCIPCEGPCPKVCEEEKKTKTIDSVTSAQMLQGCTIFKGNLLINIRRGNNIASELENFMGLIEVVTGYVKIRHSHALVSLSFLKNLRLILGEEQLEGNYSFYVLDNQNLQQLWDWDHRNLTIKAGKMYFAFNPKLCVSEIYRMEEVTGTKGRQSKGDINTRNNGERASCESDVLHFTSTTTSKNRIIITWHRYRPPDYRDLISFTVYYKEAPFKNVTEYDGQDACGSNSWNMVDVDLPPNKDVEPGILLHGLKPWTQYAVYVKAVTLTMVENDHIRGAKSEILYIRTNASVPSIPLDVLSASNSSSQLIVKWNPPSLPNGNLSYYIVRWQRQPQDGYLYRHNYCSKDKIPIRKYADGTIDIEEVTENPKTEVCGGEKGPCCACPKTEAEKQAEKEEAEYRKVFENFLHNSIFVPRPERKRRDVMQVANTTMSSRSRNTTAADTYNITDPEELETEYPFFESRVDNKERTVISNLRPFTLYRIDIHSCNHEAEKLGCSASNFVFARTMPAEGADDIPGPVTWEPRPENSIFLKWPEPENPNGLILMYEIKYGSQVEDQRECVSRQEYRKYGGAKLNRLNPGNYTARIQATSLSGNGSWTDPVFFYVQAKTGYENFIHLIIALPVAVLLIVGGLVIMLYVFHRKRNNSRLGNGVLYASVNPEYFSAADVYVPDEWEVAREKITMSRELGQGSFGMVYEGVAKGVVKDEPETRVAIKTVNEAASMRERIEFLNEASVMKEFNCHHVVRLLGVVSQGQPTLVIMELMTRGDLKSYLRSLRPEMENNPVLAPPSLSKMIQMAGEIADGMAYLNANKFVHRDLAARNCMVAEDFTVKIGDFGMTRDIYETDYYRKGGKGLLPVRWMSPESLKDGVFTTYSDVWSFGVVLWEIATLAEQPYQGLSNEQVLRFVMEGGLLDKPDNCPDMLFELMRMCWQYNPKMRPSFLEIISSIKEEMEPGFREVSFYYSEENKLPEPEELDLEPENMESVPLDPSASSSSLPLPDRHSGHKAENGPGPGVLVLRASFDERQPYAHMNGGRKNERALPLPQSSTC
measure: IC50 (nM)
One number for each entry, in nM.

> print(dat)
                                   molecule  unit.symbol  numeric.result
1  COc1cc(N2CCN(C[C@@H](C)O)CC2)ccc1Nc1ncc(Cl)c(-c2cnc3ccccn23)n1 [Example 51]           nM               8
2  COc1cc(N2CCN(CCO)CC2)c(C)cc1Nc1ncc(Cl)c(-c2cnc3ccccn23)n1 [Example 279]           nM               8
3  COc1cc(N2CCN(C(=O)[C@@H](C)OC)CC2)ccc1Nc1ncc(Cl)c(-c2cnc3ccccn23)n1 [Example 25.5]           nM               9

// below: IC50 requested for another molecule
In: What value of measured IC50 is listed for CCN1CCN(c2ccc(Nc3ncc(F)c(-c4cnc5ccccn45)n3)c(OC)c2)CC1 [Example 120] ?
Out: 128
